In this section, each of the compounds is paired with its reported IC50.
- subject of test: CRAF (Homo sapiens)
- Sequence (P04049 whole entry): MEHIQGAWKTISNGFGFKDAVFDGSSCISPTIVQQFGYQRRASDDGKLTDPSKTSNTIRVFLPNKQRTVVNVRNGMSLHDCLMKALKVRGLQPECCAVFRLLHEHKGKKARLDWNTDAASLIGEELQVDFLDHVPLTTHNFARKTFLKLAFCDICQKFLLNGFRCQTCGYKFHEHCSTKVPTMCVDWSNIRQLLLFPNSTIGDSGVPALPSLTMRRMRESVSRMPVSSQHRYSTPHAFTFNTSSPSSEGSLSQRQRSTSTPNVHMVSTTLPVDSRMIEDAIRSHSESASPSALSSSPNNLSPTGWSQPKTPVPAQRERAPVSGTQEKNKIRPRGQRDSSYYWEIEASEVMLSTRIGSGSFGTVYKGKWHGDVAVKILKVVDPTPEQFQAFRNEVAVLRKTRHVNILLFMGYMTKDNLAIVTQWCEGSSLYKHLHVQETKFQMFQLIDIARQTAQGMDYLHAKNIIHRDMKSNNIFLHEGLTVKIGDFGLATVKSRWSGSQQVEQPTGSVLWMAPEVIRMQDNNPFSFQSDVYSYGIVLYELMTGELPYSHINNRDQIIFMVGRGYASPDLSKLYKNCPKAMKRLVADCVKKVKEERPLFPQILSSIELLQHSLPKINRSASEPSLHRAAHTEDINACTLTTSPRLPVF
- assay text: Reaction Biology kinase HotSpot enzyme assay
- Type: biochemical
- conditions used: 1 µM ATP; mean ± S.D. of two separate experiments; read-out: IC50 CRAF
measured property: IC50 (µM)

# compound, reported result
data = [
    ("O=S(=O)(NCCNc1nccc(-n2cnc3ccccc32)n1)c1ccc(Cl)cc1 [12c]", 1.49),
    ("O=S(=O)(NCCCNc1nccc(-n2cnc3ccccc32)n1)c1ccc(F)cc1 [12i]", 0.98),
    ("O=S(=O)(NCCNc1nccc(-n2cnc3ccccc32)n1)c1ccc(C(F)(F)F)cc1 [12e]", 1.14),
    ("COc1ccc(S(=O)(=O)NCCCNc2nccc(-n3cnc4ccccc43)n2)cc1 [12m]", 0.96),
    ("O=S(=O)(NCCNc1nccc(-n2cnc3ccccc32)n1)c1ccc(F)cc1 [12b]", 1.34),
]

---

- Test system: IGROV1
- assay text: NCI 60 cell line screen
- Assay type: cell-based
- conditions used: Homo sapiens, IGROV-1; IGROV1, Ovarian Cancer; read-out: Percent growth
- Description: Anticancer profiling over a panel of 60 cancer cell lines was carried out at the National Cancer Institute (NCI), Bethesda, Maryland, USA, https://dtp.cancer.gov/discovery_development/nci-60/methodology.htm (Last visit 22 September 2021), using the standard procedure (detailed procedure is located in the Supplementary Information page 50 s). NCI standard procedure for 60 cell lines assay […] Three dose response parameters are calculated for each experimental agent. […] (TGI) is calculated from Ti = Tz.
Listing: activity at 10 µM of selected compounds
measured property: activity at 10 µM (%)

# compound, measured property, value units, reported result
data = [
    ("O=S(=O)(NCCNc1nccc(-n2cnc3ccccc32)n1)c1ccccc1 [12a]", "activity at 10 µM", "%", 89.9),
    ("O=S(=O)(NCCCNc1nccc(-n2cnc3ccccc32)n1)c1ccc(F)cc1 [12i]", "activity at 10 µM", "%", 91.8),
    ("COc1ccc(S(=O)(=O)NCCNc2nccc(-n3cnc4ccccc43)n2)cc1 [12f]", "activity at 10 µM", "%", 89),
    ("O=S(=O)(NCCNc1nccc(-n2cnc3ccccc32)n1)c1ccc(Br)cc1 [12d]", "activity at 10 µM", "%", 90.7),
]

---

- subject of test: V600EBRAF (Homo sapiens, UniProt P15056, V600E)
- Construct: purchased Reaction Biology Corp. (Kinase HotSpot service)
- Sequence (P15056 whole entry V600E): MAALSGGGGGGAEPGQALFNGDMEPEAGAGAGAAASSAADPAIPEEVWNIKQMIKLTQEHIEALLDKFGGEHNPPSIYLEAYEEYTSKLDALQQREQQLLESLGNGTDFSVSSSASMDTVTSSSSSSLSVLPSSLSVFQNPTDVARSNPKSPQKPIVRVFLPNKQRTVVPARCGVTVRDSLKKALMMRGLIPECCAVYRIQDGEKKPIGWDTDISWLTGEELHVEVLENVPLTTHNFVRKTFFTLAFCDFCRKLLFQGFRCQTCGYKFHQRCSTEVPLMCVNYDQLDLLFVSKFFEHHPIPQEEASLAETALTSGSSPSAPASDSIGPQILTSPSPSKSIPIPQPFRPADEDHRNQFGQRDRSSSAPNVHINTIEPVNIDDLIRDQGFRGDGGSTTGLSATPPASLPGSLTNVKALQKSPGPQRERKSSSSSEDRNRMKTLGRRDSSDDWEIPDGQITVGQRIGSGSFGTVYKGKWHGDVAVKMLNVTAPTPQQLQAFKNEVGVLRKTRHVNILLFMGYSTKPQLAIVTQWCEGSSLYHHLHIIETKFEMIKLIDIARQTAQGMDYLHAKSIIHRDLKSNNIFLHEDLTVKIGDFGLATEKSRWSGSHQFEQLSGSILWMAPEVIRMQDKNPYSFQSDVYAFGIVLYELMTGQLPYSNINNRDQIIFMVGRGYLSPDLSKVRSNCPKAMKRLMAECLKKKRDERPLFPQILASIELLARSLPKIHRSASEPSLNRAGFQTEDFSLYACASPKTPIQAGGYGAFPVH
- assay text: Reaction Biology kinase HotSpot enzyme assay
- Type: biochemical
- conditions used: single dose 1 µM; 1 µM ATP; mean ± S.D. of two experiments
Rule: measured % Inhibition at 1 µM over V600EBRAF below 80% gets criterion met; anything equal to or greater than 80% gets criterion not met.

# compound, subject of test, assigned category
data = [
    ("O=S(=O)(NCCCNc1nccc(-n2cnc3ccccc32)n1)c1ccc(Br)cc1 [12k]", "V600EBRAF (Homo sapiens, UniProt P15056, V600E)", "criterion met"),
    ("COc1ccc(S(=O)(=O)NCCCNc2nccc(-n3cnc4ccccc43)n2)cc1 [12m]", "V600EBRAF (Homo sapiens, UniProt P15056, V600E)", "criterion met"),
    ("O=S(=O)(NCCNc1nccc(-n2cnc3ccccc32)n1)c1ccc(F)cc1 [12b]", "V600EBRAF (Homo sapiens, UniProt P15056, V600E)", "criterion met"),
    ("O=S(=O)(NCCCNc1nccc(-n2cnc3ccccc32)n1)c1ccc(Cl)cc1 [12j]", "V600EBRAF (Homo sapiens, UniProt P15056, V600E)", "criterion not met"),
    ("O=S(=O)(NCCNc1nccc(-n2cnc3ccccc32)n1)c1ccc(Cl)cc1 [12c]", "V600EBRAF (Homo sapiens, UniProt P15056, V600E)", "criterion met"),
    ("O=S(=O)(NCCCNc1nccc(-n2cnc3ccccc32)n1)c1ccc(C(F)(F)F)cc1 [12l]", "V600EBRAF (Homo sapiens, UniProt P15056, V600E)", "criterion not met"),
    ("O=S(=O)(NCCCNc1nccc(-n2cnc3ccccc32)n1)c1ccccc1 [12h]", "V600EBRAF (Homo sapiens, UniProt P15056, V600E)", "criterion met"),
]
